Tested on: HeLa cells
assaySummary: Purinosome dynamics DMR screen, sequential order molecule, DMAT, TBB
Format: cell-based, human
conditionDescription: adrenergic receptor ligand library; order ligand, DMAT, TBB; FIG. 5
property: modulation of the DMAT signal

For orientation, consider the following solved cases.
compound	system	modulation of the DMAT signal
CS(=O)(=O)Nc1c(O)ccc2c1CCCC2C1=NCCN1 (stereo not drawn)	HeLa cells	suppress
CC(CCc1ccc(O)cc1)NCCc1ccc(O)c(O)c1 (stereo not drawn)	HeLa cells	specifically suppress
Cc1cc(C(C)(C)C)c(O)c(C)c1CC1=NCCN1	HeLa cells	suppress
CC(C)NCC(O)c1ccc(O)c(O)c1 (stereo not drawn)	HeLa cells	specifically suppress
NCCc1ccc(O)c(O)c1	HeLa cells	suppress
Clc1ccc2c(c1)C(N1CCNCC1)=Nc1ccccc1O2	HeLa cells	potentiate
Cc1cccc(C)c1N=C1NCCCS1	HeLa cells	suppress
Clc1ccc2nsnc2c1NC1=NCCN1	HeLa cells	suppress
c1ccc2c(CC3=NCCN3)cccc2c1	HeLa cells	suppress
CC(C)(Cc1c[nH]c2ccc(Cl)cc12)NCCOc1ccccc1OCC1CC1	HeLa cells	potentiate

Input line: Using HeLa cells as the test system, report measured modulation of the DMAT signal of NC[C@H](O)c1ccc(O)c(O)c1 [norepinephrine] .
Output line: suppress

Input line: Using HeLa cells as the test system, report measured modulation of the DMAT signal of Brc1c(NC2=NCCN2)ccc2nccnc12 .
Output line: suppress

Input line: Using HeLa cells as the test system, report measured modulation of the DMAT signal of CNC[C@H](O)c1ccc(O)c(O)c1 [epinephrine, Epinephrine] .
Output line: suppress

Input line: Using HeLa cells as the test system, report measured modulation of the DMAT signal of c1ccc2c(c1)[I+]c1ccccc1-2 .
Output line: potentiate

Input line: Using HeLa cells as the test system, report measured modulation of the DMAT signal of CNCCCC12CCC(c3ccccc31)c1ccccc12 .
Output line: potentiate

Input line: Using HeLa cells as the test system, report measured modulation of the DMAT signal of Clc1cccc(Cl)c1N=C1NCCN1 .
Output line: suppress

Input line: Using HeLa cells as the test system, report measured modulation of the DMAT signal of N=C(N)NC(=O)Cc1c(Cl)cccc1Cl .
Output line: suppress

Attribution: patent US20120190620A1
